experimental details: Drug concentration in BALB/c mouse plasma at 100 mg/kg, sc measured after 4 hrs by LC-MS/MS analysis
Assay type: ADME, organism-based
readout name: concentration at 4 h

INSERT INTO assay_data (substance_smiles, observed_value) VALUES
  ('O=c1ccc2c(N3C[C@@H]4[C@@H](CCP(=O)(O)O)[C@@H]4C3)ncnc2[nH]1', '40 nM');

----------
experimental details: Half life in male ICR mouse at 5 mg/kg, iv measured upto 24 hrs by LC-MS/MS analysis
Type: ADME, organism-based
setup conditions: in vivo
readout name: half-life

INSERT INTO measurements (substance_smiles, observed_value) VALUES
  ('O=c1ccc2c(N3C[C@@H]4[C@@H](CCP(=O)(O)O)[C@@H]4C3)ncnc2[nH]1', '1.01 h');
